Origin of measurements: patent EP4768505A1

# ASSAY SYSTEM: Human CD79A+CD79B antigen (human) (UniProt P11912)
# Sequence (P11912 33-143 limits assumed, chain 1 of 2): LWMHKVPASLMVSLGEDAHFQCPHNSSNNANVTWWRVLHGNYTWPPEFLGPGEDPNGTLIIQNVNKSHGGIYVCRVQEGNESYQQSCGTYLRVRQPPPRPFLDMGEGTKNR
# Sequence (P40259 29-159 limits assumed, chain 2 of 2, further chain): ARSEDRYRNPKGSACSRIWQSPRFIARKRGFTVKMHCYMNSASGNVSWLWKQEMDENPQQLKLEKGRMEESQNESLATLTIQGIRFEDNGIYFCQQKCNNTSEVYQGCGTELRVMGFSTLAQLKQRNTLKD
# TEST DESCRIPTION: ELISA on coated antigen, anti-myc detection; 200ng antibody added
Item-by-item account of OD450 nm
Your answer should be a plain number; it is taken to be in OD450.

| BINDER | EXPERIMENTAL RESULT |
| --- | --- |
| anti-CD79B single-domain antibody JYB10 (VHH, Alpaca VHH from a phage library; ELISA detected with an anti-myc antibody; a myc tag is not described; not shown: His-tag protein at the C-terminal end) VHH: DVQLQESGGGLVQPGGSLSLSCAASISSSSIWVRAWHRQAPGKQRELVAAINNDGQTMYADSVKGRFTISRDNAKTTVSLQMNSLKPEDTAVYYCNVVTPKGHQYWGQGTQVTVSS | 0.224 |
| anti-CD79B single-domain antibody JYB4 (VHH, Alpaca VHH from a phage library; not shown: His-tag protein at the C-terminal end) VHH: DVQLQESGGGLVQPGGSLRLSCAASGFAFSLYAMSWARQAPGKGLEWVSDIYGDDDSRRNYADSVKGRFTISRDNAKNTVYLQMTNLQPEDTALYYCGKGRDGTRWSAREYEYRGQGTQVTVSS | 0.421 |
| anti-CD79B single-domain antibody JYB8 (VHH, not shown: small tags and cut ends) VHH: DVQLQESGGGLMQPGGSLSLTCTASISSLSIWVRAWHRQAPGKQRELVAAINSDGQTMYADSVKGRFTISRDSAKTTVSLQMDSLKPEDTAVYYCNVVTPKGQQYWGQGTQVTVSS | 1.43 |

OD450 nm recorded for this binder, anti-CD79B single-domain antibody JYB14 (VHH, Alpaca VHH from a phage library; ELISA detected with an anti-myc antibody; a myc tag is not described; not shown: His-tag protein at the C-terminal end) VHH: DVQLQESGGGLVQPGGSLSLTCTASISSLTIWVRAWHRQAPGKQRELVAAINSDGQTMYADSVKGRFTISRDNAKTTVSLQMDSLKPEDTAVYYCNVVTPNGQQYWGQGTQVTVSS , is 0.421

Documented OD450 nm of anti-CD79B single-domain antibody JYB11 (VHH, Alpaca VHH from a phage library; ELISA detected with an anti-myc antibody; a myc tag is not described; not shown: His-tag protein at the C-terminal end) VHH: DVQLQESGGGLVQPGGSLSLSCAASMSSPSLWVRAWHRQAPGKQRELVAAINSDGQTMYADSVKGRFTISRDNAKTLVSLQMDSLKPEDTAVYYCNVVTPRGQQYWGQGTQVTVSS : 0.271
